experimental_system: T1, recombinant human soluble TNF receptor inhibitor/Fc chimera (rHusTNFRI) (human, UniProt P19438 30-211)
T1 construct: Bought from Prospec-Tany TechnoGene; Only the soluble part stood in the assay; also called TNF-R1; immobilised rHusTNFRI; not shown: Fc part of human IgG1; 6x histidine tag on the Fc part
T1 sequence: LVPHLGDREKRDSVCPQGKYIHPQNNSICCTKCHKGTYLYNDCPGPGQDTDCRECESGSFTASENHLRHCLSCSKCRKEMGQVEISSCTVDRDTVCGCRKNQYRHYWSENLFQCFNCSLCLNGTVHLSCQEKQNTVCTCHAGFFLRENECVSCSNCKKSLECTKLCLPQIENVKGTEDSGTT
experiment_summary: solid-phase competition ELISA: unlabelled TNF70-80 against 10 µM biotinylated TNF70-80 on immobilised rHusTNFRI
pIC50: −log10 of the molar value. Where no end group is shown, it is not given here.
measured_quantity: pIC50

### Prompt For the binder PSTHVLITHTI-OH (4; also called Peptide A; TNF mimetic peptide) [TNF70-80 (Pro-Ser-Thr-His-Val-Leu-Ile-Thr-His-Thr-Ile-OH)] , what pIC50 is on record?
### Response ~4.68

All figures here come from patent US20090291899A1.
